Below, each entry is listed with its recorded pKi.
assayed-target: Human α2δ-1 Subunit of Cav2.2 Calcium Channel (Homo sapiens, UniProt P54289)
Sequence (P54289 25-1103): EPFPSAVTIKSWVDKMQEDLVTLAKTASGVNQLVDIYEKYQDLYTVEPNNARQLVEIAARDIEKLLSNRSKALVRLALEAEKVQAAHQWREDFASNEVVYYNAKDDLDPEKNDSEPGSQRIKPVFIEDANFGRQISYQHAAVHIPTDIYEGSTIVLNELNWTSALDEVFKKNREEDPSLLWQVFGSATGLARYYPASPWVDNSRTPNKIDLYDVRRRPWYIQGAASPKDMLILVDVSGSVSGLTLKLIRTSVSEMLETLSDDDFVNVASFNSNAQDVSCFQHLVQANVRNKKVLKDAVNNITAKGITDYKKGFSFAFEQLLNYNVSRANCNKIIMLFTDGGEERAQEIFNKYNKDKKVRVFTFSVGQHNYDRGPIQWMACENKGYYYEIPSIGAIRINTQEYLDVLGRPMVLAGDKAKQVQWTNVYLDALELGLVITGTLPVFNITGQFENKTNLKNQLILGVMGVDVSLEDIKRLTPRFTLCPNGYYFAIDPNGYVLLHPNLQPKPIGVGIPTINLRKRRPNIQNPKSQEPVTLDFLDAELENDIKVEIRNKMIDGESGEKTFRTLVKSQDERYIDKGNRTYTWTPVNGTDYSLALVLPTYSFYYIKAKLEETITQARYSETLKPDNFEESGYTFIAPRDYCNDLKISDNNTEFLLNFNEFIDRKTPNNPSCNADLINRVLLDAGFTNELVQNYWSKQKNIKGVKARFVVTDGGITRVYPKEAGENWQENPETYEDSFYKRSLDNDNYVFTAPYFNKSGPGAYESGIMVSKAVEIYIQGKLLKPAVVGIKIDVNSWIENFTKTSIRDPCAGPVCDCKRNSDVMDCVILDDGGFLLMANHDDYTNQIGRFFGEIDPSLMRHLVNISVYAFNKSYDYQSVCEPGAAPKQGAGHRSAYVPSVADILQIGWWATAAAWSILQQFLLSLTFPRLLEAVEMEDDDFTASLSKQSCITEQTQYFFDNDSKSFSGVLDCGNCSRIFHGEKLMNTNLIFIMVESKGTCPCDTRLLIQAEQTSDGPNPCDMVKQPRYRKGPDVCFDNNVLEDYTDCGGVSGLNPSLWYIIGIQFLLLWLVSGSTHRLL
assay-procedure: biochemical
Format: binding
pKi: −log10 of the molar value.

- compound: "CNCC[C@H](OCc1cccc(CN2CCC(c3cccc(O)c3)(N(C)C)CC2)c1)c1cccs1"
  pKi: "< 5.52"
- compound: "CNCC[C@@H](Oc1cccc(CN2CCC(c3ccccc3)(N(C)C)CC2)c1)c1cccs1"
  pKi: "5.52 to 6.30"
- compound: "CNCCC(Oc1ccc(CN2CCC(c3ccccc3)(N(C)C)CC2)cc1)c1cccs1 (centres unmarked)"
  pKi: "< 5.52"
- compound: "CNCC[C@H](OCc1cccc(CN2CCC(c3ccccc3)(N(C)C)CC2)c1)c1ccccc1"
  pKi: "< 5.52"
- compound: "CNCCC(Oc1cccc(CN2CCC(c3cccc(O)c3)(N(C)C)CC2)c1)c1cccs1 (centres unmarked)"
  pKi: "6.30 to 7.00"

====

Below, each entry is listed with its recorded Ki.
assayed-target: Human α2δ-1 Subunit of Cav2.2 Calcium Channel (Homo sapiens)
assay-procedure: biochemical
Type: binding
experimental-conditions: Table 2 (dual compounds); human α2δ-1 enriched membranes, 15 nM [3H]-Gabapentin; read-out: Ki (nM) alpha2delta Hum
experimental-readout: Ki

- molecule: "CNCC[C@@H](OCc1cccc(CN2CCC(c3ccccc3)(N(C)C)CC2)c1)c1cccs1"
  data-value: "500 to 3000 nM"
- molecule: "CNCCC(Oc1cccc(N2CCC(c3ccccc3)(N(C)C)CC2)c1)c1cccs1 (stereo not drawn)"
  data-value: "500 to 3000 nM"
- molecule: "CNCC[C@H](OCc1cccc(CN2CCC(c3ccccc3)(N(C)C)CC2)c1)c1cccs1"
  data-value: "> 3000 nM"
